Target: T1, Recombinant human IL-18 (human, UniProt Q14116 37-193)
T1 sequence: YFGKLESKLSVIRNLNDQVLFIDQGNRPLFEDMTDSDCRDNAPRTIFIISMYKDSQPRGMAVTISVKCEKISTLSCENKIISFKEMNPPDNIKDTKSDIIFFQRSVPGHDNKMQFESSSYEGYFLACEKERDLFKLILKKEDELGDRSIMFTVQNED
Assay: cell-based or functional assay
PARAMETER MEASURED: IC50, inhibition of IFN-γ release, KG-1 cells, Hu IL-18 (1 nM)
State the answer as a number, implicitly in nM.

Solved entries:
# BINDER, MEASURED VALUE
rows = [
    ("MOR9464_N30I (antibody, human IgG1, lambda, L234A L235A, V domains shown) VH: EVQLVQSGAEVKKPGSSVKVSCKASGGTFISYAISWVRQAPGQGLEWMGNIIPMTGQTYYAQKFQGRVTITADESTSTAYMELSSLRSEDTAVYYCARAAYHPLVFDNWGQGTLVTVSS VL: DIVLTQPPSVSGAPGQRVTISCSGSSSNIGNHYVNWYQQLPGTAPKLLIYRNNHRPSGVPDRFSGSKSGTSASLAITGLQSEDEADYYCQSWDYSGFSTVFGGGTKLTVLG", 0.32),
    ("MOR9464_N30V (antibody, human IgG1, lambda, L234A L235A, V domains shown) VH: EVQLVQSGAEVKKPGSSVKVSCKASGGTFVSYAISWVRQAPGQGLEWMGNIIPMTGQTYYAQKFQGRVTITADESTSTAYMELSSLRSEDTAVYYCARAAYHPLVFDNWGQGTLVTVSS VL: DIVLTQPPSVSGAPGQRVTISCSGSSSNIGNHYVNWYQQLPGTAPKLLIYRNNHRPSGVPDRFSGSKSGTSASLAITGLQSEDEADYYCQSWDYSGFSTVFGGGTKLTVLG", 0.29),
    ("MOR9464_N30G (antibody, human IgG1, lambda, L234A L235A, V domains shown) VH: EVQLVQSGAEVKKPGSSVKVSCKASGGTFGSYAISWVRQAPGQGLEWMGNIIPMTGQTYYAQKFQGRVTITADESTSTAYMELSSLRSEDTAVYYCARAAYHPLVFDNWGQGTLVTVSS VL: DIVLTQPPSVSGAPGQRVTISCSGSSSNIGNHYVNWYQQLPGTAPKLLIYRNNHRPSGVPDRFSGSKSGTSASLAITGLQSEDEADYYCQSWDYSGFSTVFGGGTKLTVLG", 0.54),
    ("MOR9464_N30H (antibody, human IgG1, lambda, L234A L235A, V domains shown) VH: EVQLVQSGAEVKKPGSSVKVSCKASGGTFHSYAISWVRQAPGQGLEWMGNIIPMTGQTYYAQKFQGRVTITADESTSTAYMELSSLRSEDTAVYYCARAAYHPLVFDNWGQGTLVTVSS VL: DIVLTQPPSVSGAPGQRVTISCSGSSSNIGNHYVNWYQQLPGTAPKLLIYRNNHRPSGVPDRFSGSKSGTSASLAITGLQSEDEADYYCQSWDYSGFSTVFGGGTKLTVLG", 0.23),
]

Let us move to another entry and its IC50, inhibition of IFN-γ release, KG-1 cells, Hu IL-18 (1 nM).
Input line: Check the records and state IC50, inhibition of IFN-γ release, KG-1 cells, Hu IL-18 (1 nM) for MOR9464_N30R (antibody, human IgG1, lambda, L234A L235A, V domains shown) VH: EVQLVQSGAEVKKPGSSVKVSCKASGGTFRSYAISWVRQAPGQGLEWMGNIIPMTGQTYYAQKFQGRVTITADESTSTAYMELSSLRSEDTAVYYCARAAYHPLVFDNWGQGTLVTVSS VL: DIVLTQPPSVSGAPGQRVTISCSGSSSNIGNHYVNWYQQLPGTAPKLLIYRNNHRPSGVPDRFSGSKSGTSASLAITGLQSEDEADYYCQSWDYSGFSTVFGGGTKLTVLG
Output line: 0.47

The reported measurements were obtained from patent US20140112915A1.
